// provenance: PubChem BioAssay (Tox21)

method: qHTS assay for small molecule disruptors of the mitochondrial membrane potential (AID 720635)
assay context: HepG2 mitochondrial membrane potential, Mito-MPS dye ratio; series mostly up to 83.2 µM
Records with an inconclusive call do not appear. The source made the active and inactive calls. The call rests on the fitted dose curve; in most records, active means well fitted inhibition curve with a large enough effect in the signal ratio in the repeat runs; inconclusive means weak or mixed curves, or effect the other way; inactive means flat fitted curve, though single readings scatter; the % refers to the signal ratio.
Outcome codes: active, inactive

{"columns": ["compound", "assigned class"],
 "data": [
  ["O=C(O)/C=C/C(=O)Nc1ccc(S(=O)(=O)Nc2nccs2)cc1", "inactive"],
  ["C[C@]12O[C@H](C[C@]1(O)CO)n1c3ccccc3c3c4c(c5c6ccccc6n2c5c31)CNC4=O", "active"],
  ["COc1cc2c(cc1OC)[C@@H](Cc1cc(OC)c(OC)c(OC)c1)[N+](C)(CCCOC(=O)CC/C=C/CCC(=O)OCCC[N+]1(C)CCc3cc(OC)c(OC)cc3[C@H]1Cc1cc(OC)c(OC)c(OC)c1)CC2 (stereo partly drawn)", "inactive"],
  ["CC1CCCC(C)N1NC(=O)c1ccc(Cl)c(S(N)(=O)=O)c1 (stereo not drawn)", "inactive"],
  ["COC1=C(OC)C(=O)C(C/C=C(\\C)CC/C=C(\\C)CC/C=C(\\C)CC/C=C(\\C)CC/C=C(\\C)CC/C=C(\\C)CC/C=C(\\C)CC/C=C(\\C)CC/C=C(\\C)CCC=C(C)C)=C(C)C1=O", "inactive"],
  ["Nc1nc(NC2CC2)c2ncn([C@@H]3C=C[C@@H](CO)C3)c2n1", "inactive"],
  ["NC(N)=NCC1COC2(CCCCC2)O1 (stereo not drawn)", "inactive"],
  ["CC(=O)OCC(=O)[C@@]1(O)CC[C@H]2[C@@H]3C[C@H](C)C4=CC(=O)C=C[C@]4(C)[C@H]3[C@@H](O)C[C@@]21C", "inactive"]
]}

---

method: qHTS RealTime-Glo MT Cell Viability Assay in HEK293 cells - 24 hour (AID 1224886); further: nearly all actives have a fitted effect of over 50% in size
assay context: RealTime-Glo luminescence; series mostly up to 76.8 µM
Records with an inconclusive call do not appear. Calls of active or inactive are those of the source. Calls come from the whole dose curve; as a rule, active = well fitted cell-killing curve with a large enough effect in the repeat runs; inconclusive = weak or mixed curves, or effect the other way; inactive = flat fitted curve, though single readings scatter.
Outcome codes: True (active), False (inactive)

{"columns": ["compound", "assigned class"],
 "data": [
  ["CCc1cccc(C)c1N(C(=O)C(=O)O)C(C)COC (centres undefined)", "False"],
  ["COCCC(=O)OC", "False"],
  ["Cc1ccc(C=O)cc1", "False"],
  ["CCCCCCCCCCCCCCCCC(C(=O)O)C(O)(CC(=O)O)C(=O)O (centres undefined)", "False"],
  ["CCc1cccc(C)c1N(C(=O)CS(=O)(=O)O)C(C)COC (centres undefined)", "False"],
  ["C=CC(C)(C)O", "False"],
  ["CC1(C)[C@H](C(=O)OCc2cccc(Oc3ccccc3)c2)[C@@H]1C=C(Cl)Cl", "False"],
  ["[Cl][Eu]([Cl])[Cl]", "False"],
  ["Nc1cc([N+](=O)[O-])cc(Cl)c1O", "False"],
  ["CO[Si](OC)(c1ccccc1)c1ccccc1", "False"],
  ["Cc1c[nH]c(=O)[nH]c1=O", "False"],
  ["NCc1cccc(C2CCN(C(=O)c3ccc(C#Cc4ccccc4F)o3)CC2)c1", "True"],
  ["ClC(c1ccccc1)(c1ccccc1)c1ccccc1", "False"],
  ["CN1CCN(c2ccccc2/C=C2\\SCCN(c3ccc(Cl)c(Cl)c3)C2=O)CC1", "True"],
  ["CCC1(C)C(=O)N(Cl)C(=O)N1Cl (centres undefined)", "False"],
  ["CCOc1nc(F)cc2nc(S(=O)(=O)Nc3c(Cl)cccc3C(=O)OC)nn12", "False"],
  ["CSc1nnc(C(C)(C)C)c(=O)[nH]1", "False"],
  ["CCCCCN=C(N)N/N=C/c1c[nH]c2ccc(OC)cc12", "True"],
  ["CC1=CC[C@@H](C(C)(C)O)CC1", "False"],
  ["CCCCCCCCOC(=O)c1cc(O)c(O)c(O)c1", "True"],
  ["Cc1cc(F)ccc1-c1cc(N2CC[C@@H](O)[C@H]2CO)ncc1N(C)C(=O)C(C)(C)c1cc(C(F)(F)F)cc(C(F)(F)F)c1", "True"],
  ["CCC(C)(C)c1ccc(CC(C)CN2C[C@@H](C)O[C@@H](C)C2)cc1 (some centres undefined)", "False"],
  ["Clc1ccc2c(Cl)ccnc2c1", "False"],
  ["O=C1C=CC(=O)N1c1cccc(N2C(=O)C=CC2=O)c1", "True"],
  ["CCc1cccc(CC)c1", "False"],
  ["C=Cc1ccc(O)c(OC)c1", "False"],
  ["CC1CCC(C(C)(C)O)CC1 (centres undefined)", "False"],
  ["c1ccc2cc3c4ccccc4c4ccccc4c3cc2c1", "False"],
  ["[Cl][Sc]([Cl])[Cl]", "False"],
  ["CC(=O)Nc1ccc(N=Nc2cc(C)ccc2O)cc1", "False"],
  ["CCOC(=O)OC(=O)OCC", "False"],
  ["C=CC(=O)O[C@H]1C[C@@H]2CC[C@@]1(C)C2(C)C", "False"],
  ["CC(=O)CC(N)=O", "False"],
  ["CC(C)(C)c1cc(CCC(=O)OCCSCCOC(=O)CCc2cc(C(C)(C)C)c(O)c(C(C)(C)C)c2)cc(C(C)(C)C)c1O", "False"],
  ["CCC(O)CO (centres undefined)", "False"],
  ["C/C(=N\\[Si](C)(C)C)O[Si](C)(C)C", "False"],
  ["Clc1cccc(Cl)n1", "False"],
  ["Cc1cc(Br)ccc1NC(=O)CCl", "True"],
  ["O=C(NCc1ncc(C(F)(F)F)cc1Cl)c1c(Cl)cccc1Cl", "True"],
  ["Cc1ccc2nc(-c3ccc(N)cc3)sc2c1S(=O)(=O)O", "False"],
  ["Cc1cccc2c1ccc1ccccc12", "False"],
  ["Cc1ccc2n[nH]nc2c1", "False"],
  ["Cc1cccc(C)c1C", "False"],
  ["O=c1[nH]cccc1O", "False"],
  ["CCN(CC)c1ccc(C=O)c(O)c1", "False"],
  ["N#Cc1nc(Cl)c(Cl)c(Cl)c1Cl", "True"],
  ["COC(=O)c1ccc([N+](=O)[O-])cc1", "False"],
  ["CN[C@H]1CC[C@@H](c2ccc(Cl)c(Cl)c2)c2ccc(S(N)(=O)=O)cc21", "True"],
  ["C=C(C)C1CCC(C)CC1O (centres undefined)", "False"],
  ["Cc1ccc(N=Nc2c(O)ccc3ccccc23)c(C)c1", "False"],
  ["Cc1ccc(Cl)c(N)c1Cl", "False"],
  ["Brc1cc(Br)cc(Br)c1", "False"],
  ["CC(CC(C)(C)C)CC(C)(C)CC(C)(C)C (centres undefined)", "False"],
  ["CCCCCCCCCCCCCCCCCCNC(=O)OC1CCN(C(=O)OC[C@H](COC(=O)N(Cc2cccc[n+]2CC)C(=O)c2ccccc2OC)OC)CC1", "True"]
]}

---

method: qHTS assay for small molecule disruptors of the mitochondrial membrane potential (AID 720635); further: potency means the concentration at half of the fitted maximal effect
assay context: HepG2 mitochondrial membrane potential, Mito-MPS dye ratio; series mostly up to 83.2 µM
Inconclusive results are not listed. The source made the active and inactive calls. Calls come from the whole dose curve; as a rule, active = well fitted inhibition curve with a large enough effect in the signal ratio in the repeat runs; inconclusive = weak or mixed curves, or effect the other way; inactive = flat fitted curve, though single readings scatter; the % refers to the signal ratio. Positions of bridges follow the written chain, without caps; N, C: chain ends. Non-standard residues stand in square brackets, D forms with d. Residues, ends and D or L forms follow the SMILES beside them. *: point of attachment. X1 = CC[C@@H](C)[C@@H](N)C1=N[C@H](C(=O)*)CS1; d(aIle) = CC[C@H](C)[C@@H](N)C(=O)O; dOrn = NCCC[C@@H](N)C(=O)O

{"columns": ["compound", "Potency"],
 "data": [
  ["CCC1OC(=O)C[C@@H](O)[C@H](C)[C@@H](O[C@@H]2O[C@H](C)C[C@H](N(C)C)[C@H]2O)[C@@H](CC=O)C[C@@H](C)C(=O)/C=C/[C@]2(C)OC2C1C (stereo not given in full)", "inactive"],
  ["NCC(O)CC(=O)O (stereo not given)", "inactive"],
  ["CC(O)(c1ccc(Cl)cc1)c1ccc(Cl)cc1", "27.3 µM (active)"],
  ["CCOC(=O)[C@H](CCc1ccccc1)N[C@@H](C)C(=O)N1[C@H](C(=O)O)C[C@H]2CCCC[C@@H]21", "inactive"],
  ["NCC[C@H](O)C(=O)N[C@@H]1C[C@H](N)[C@@H](O[C@H]2O[C@H](CN)CC[C@H]2N)[C@H](O)[C@H]1O[C@H]1O[C@H](CO)[C@@H](O)[C@H](N)[C@H]1O", "inactive"],
  ["COc1ccc(/C=C/C(=O)O)cc1", "inactive"],
  ["CC[C@@H](C(=O)[C@@H](C)[C@@H](O)[C@H](C)CCc1ccc(C)c(O)c1C(=O)O)[C@H]1O[C@](CC)([C@H]2CC[C@](O)(CC)[C@H](C)O2)C[C@@H]1C", "1.06 µM (active)"],
  ["NC(=O)[C@@H]1CCCN1C(=O)[C@H](Cc1cnc[nH]1)NC(=O)[C@@H]1CCC(=O)N1", "inactive"],
  ["CC[C@@H](C)[C@@H](N)C1=N[C@H](C(=O)N[C@@H](CC(C)C)C(=O)N[C@@H](CCC(=O)O)C(=O)N[C@@H](C(=O)N[C@@H]2CCCCNC(=O)[C@@H](CC(N)=O)NC(=O)[C@@H](CC(=O)O)NC(=O)[C@@H](Cc3cnc[nH]3)NC(=O)[C@@H](Cc3ccccc3)NC(=O)[C@@H]([C@H](C)CC)NC(=O)[C@@H](CCCN)NC2=O)[C@@H](C)CC)CS1 (X1-LE[d(aIle)][dK][dOrn][dI][dF][dH][dD][dN]; lactam 4-C)", "inactive"],
  ["CCOC(=O)Cc1ccc(-c2ccccc2)cc1", "inactive"],
  ["CCC(NC(C)C)C(O)c1ccc(O)c(O)c1 (stereo not given)", "inactive"],
  ["O=P(O)(O)CP(=O)(O)O", "inactive"],
  ["FC(F)(F)C(F)(F)C(F)(F)C(F)(F)C(F)(F)F", "inactive"],
  ["CC[C@@H](C)[C@H](N)C(=O)O", "inactive"],
  ["CCOc1cc(CC(=O)N[C@@H](CC(C)C)c2ccccc2N2CCCCC2)ccc1C(=O)O", "inactive"],
  ["CON=C1C[C@]2(C[C@@H]3C[C@@H](C/C=C(\\C)C[C@@H](C)/C=C/C=C4\\CO[C@@H]5[C@H](O)C(C)=C[C@@H](C(=O)O3)[C@]45O)O2)O[C@H](/C(C)=C/C(C)C)[C@H]1C", "13.3 µM (active)"],
  ["CC(C)OC(=O)Nc1ccc2nc(-c3cscn3)[nH]c2c1", "9.87 µM (active)"],
  ["O=C1[O][Bi][O]c2ccccc21", "inactive"],
  ["C=CC1=C(C(=O)O)N2C(=O)[C@@H](NC(=O)/C(=N\\O)c3csc(N)n3)[C@H]2SC1 (stereo in doubt)", "inactive"],
  ["O=C1C2CC3CC1CC(O)(C3)C2", "inactive"],
  ["CCC(O)c1ccccc1 (stereo not given)", "inactive"],
  ["O=C1OC(O)C(C(Cl)Cl)=C1Cl (stereo not given)", "63 µM (active)"],
  ["C=CCN1C(=O)C(CC(C)C)NC1=S (stereo not given)", "inactive"],
  ["CCOc1ccc(NC(=S)Nc2ccc(OCC)cc2)cc1", "11.9 µM (active)"],
  ["CCN(CC)C(=O)[C@]1(c2ccccc2)C[C@@H]1CN", "inactive"],
  ["C[N+](C)(C)CCOP(=O)(O)OP(=O)([O-])OC[C@H]1O[C@@H](n2ccc(N)nc2=O)[C@H](O)[C@@H]1O", "inactive"],
  ["COc1cccc2c1[C@@H]1CN(CCCCn3c(=O)[nH]c4c(sc5ncc(-c6ccccc6)nc54)c3=O)C[C@@H]1CO2", "13.3 µM (active)"],
  ["CCc1ncnc2cc(OC)c(OC)cc12", "inactive"],
  ["OCC1(CO)COC(C(Cl)(Cl)Cl)OC1", "inactive"],
  ["COc1cc2c(c(OC)c1OC)-c1c(cc3c(c1OC)OCO3)C[C@@H](C)[C@](C)(O)C2", "inactive"]
]}
